- STUDY SYSTEM: bovine brain FPTase (Bos taurus, UniProt P29702+P49355)
- Construct: Famesyl-protein transferase (FPTase) from bovine brain
- PROCEDURE SUMMARY: In vitro inhibition of Ras farnesyl-protein transferase (FPTase)
- CONDITION DESCRIPTION: Ras-CVLS, [3H]FPP, concentration giving 50% inhibition, read-out: IC50, inhibition of RAS farnesylation
METRIC NAME: IC50 (µM)
Numbers only, in µM.

COMPOUND	IC50 (µM)
C/C(=C\Cc1c(O)cc(C)c(CO)c1O)CC[C@@]1(C)[C@H](C)[C@H](O)CC[C@@H]1C [Compound 15]	101
C/C(=C\Cc1c(O)c(Cl)c(C)c(C=O)c1O)[C@H](C[C@@]1(C)[C@H](C)C(=O)CC[C@@H]1C)OC(=O)CC(C)C [Compound 7]	6.5
C/C(=C\Cc1c(O)cc(C)c(CO)c1O)CC[C@@]1(C)[C@H](C)C(=O)CC[C@@H]1C [Compound 18]	75

// each compound listed below needs its IC50
1. C/C(=C\Cc1c(O)cc(C)c(C=O)c1O)[C@H](C[C@@]1(C)[C@H](C)C(=O)CC[C@@H]1C)OC(=O)CC(C)C [Compound 6]
2. COc1cc(C)c(C=O)c(O)c1C/C=C(C)/C=C/[C@@]1(C)[C@H](C)C(=O)CC[C@@H]1C [Compound 12]
3. CC(=O)O[C@@H]1CC(=O)[C@@H](C)[C@](C)(/C=C/C(C)=C/Cc2c(O)cc(C)c(C=O)c2O)[C@H]1C [Compound 3]
4. C/C(=C\Cc1c(O)cc(C)c(C)c1O)CC[C@@]1(C)[C@H](C)C(=O)CC[C@@H]1C [Compound 16]
5. CC(=O)Oc1cc(C)c(C=O)c(OC(C)=O)c1C/C=C(\C)CC[C@@]1(C)[C@H](C)C(=O)CC[C@@H]1C [Compound 11]
6. CCC(=O)O[C@@H](C[C@@]1(C)[C@H](C)C(=O)CC[C@@H]1C)/C(C)=C/Cc1c(O)cc(C)c(C=O)c1O [Compound 8]

1: 4.6; 2: 31; 3: 5.6; 4: 30.7; 5: 6.5; 6: 2.2

// each compound listed below needs its IC50
1. CC(=O)O[C@@H](C[C@@]1(C)[C@H](C)C(=O)CC[C@@H]1C)/C(C)=C/Cc1c(O)cc(C)c(C=O)c1O [Compound 9]
2. COc1cc(C)c(C=O)c(O)c1C/C=C(\C)CC[C@@]1(C)[C@H](C)C(=O)CC[C@@H]1C [Compound 13]

1: 13; 2: 2

Quick check: IC50 on bovine brain FPTase (Bos taurus, UniProt P29702+P49355), item CC(=O)O[C@@H]1CC(=O)[C@@H](C)[C@](C)(/C=C/C(C)=C/Cc2c(O)c(Cl)c(C)c(C=O)c2O)[C@H]1C [Compound 2] ?
2.8

Just for reference, patent US5420334A is where these values come from.
